src = ChEMBL document CHEMBL1131231

As shown below, each of these molecules has a reported Protection value.
Tested on: Mus musculus
METHOD DESCRIPTION: In vivo antifungal activity against murine candidosis model after peroral administration with 1 mg/kg for 5 days.(percent protection for 100% mortality with fluconazole-treated group.)
Assay type: functional
DETAILS: route oral
I'd appreciate it if you wrote the number followed by its unit.

Fill in the blank: the reported Protection of CS(=O)(=O)O.Cc1nc(-c2ccc(C#N)cc2)sc1C(=O)N[C@H](C)[C@](O)(Cn1cncn1)c1ccc(F)cc1F is ____. 10%

Param item: C[C@@H](c1nc(-c2ccc(C#N)cc2)cs1)[C@](O)(Cn1cncn1)c1ccc(F)cc1F [RAVUCONAZOLE] 0%

Param item: C[C@@H](c1ncncc1F)[C@](O)(Cn1cncn1)c1ccc(F)cc1F [VORICONAZOLE] 0%

Param item: C[C@H]([C@](O)(Cn1cncn1)c1ccc(F)cc1F)S(C)(=O)=O [GENACONAZOLE] 20%

Param item: C[C@@H](n1cnc2cc(-c3ccc(Cl)cc3)sc2c1=O)[C@](O)(Cn1cncn1)c1ccc(F)cc1F 100%

====

System: Candida albicans
METHOD DESCRIPTION: In vivo antifungal activity against murine candidosis model after peroral administration with 0.5 mg/kg at various time intervals. (percent protection for 100% mortality with untreated group)
Type: functional
DETAILS: route oral
PARAMETER: Protection

C[C@@H](NC(=O)c1sc(-c2ccc(Cl)cc2)cc1N)[C@](O)(Cn1cncn1)c1ccc(F)cc1F :: 0%

Fill in the blank: the reported Protection of C[C@@H](NC(=O)c1noc(-c2ccc(Cl)cc2)n1)[C@](O)(Cn1cncn1)c1ccc(F)cc1F is ____. 100%

Param item: C[C@@H](NC(=O)c1sc(-c2ccc(C(F)(F)F)cc2)nc1C(F)(F)F)[C@](O)(Cn1cncn1)c1ccc(F)cc1F 90%

====

Test system: Candida albicans
METHOD DESCRIPTION: In vivo antifungal activity against murine candidosis model after peroral administration with 0.5 mg/kg at various time intervals. (percent protection for 100% mortality with untreated group)
Type: functional
DETAILS: route oral
As shown below, each of these molecules has a reported Protection value.

C[C@@H](NC(=O)c1nc(-c2ccc(Cl)cc2)no1)[C@](O)(Cn1cncn1)c1ccc(F)cc1F :: 80%
C[C@@H](NC(=O)c1cccc(-c2ccc(Cl)cc2)c1)[C@](O)(Cn1cncn1)c1ccc(F)cc1F :: 40%
C[C@@H](NC(=O)c1nnc(-c2ccc(Cl)cc2)o1)[C@](O)(Cn1cncn1)c1ccc(F)cc1F :: 10%
C[C@@H](NC(=O)c1ccc(C(F)(F)F)cc1)[C@](O)(Cn1cncn1)c1ccc(F)cc1F :: 100%
Cc1nc(-c2ccc(C(C)(C)C)cc2)sc1C(=O)N[C@H](C)[C@](O)(Cn1cncn1)c1ccc(F)cc1F :: 0%
C[C@@H](NC(=O)c1sc(-c2ccc(C3N=NN=N3)cc2)nc1C(F)(F)F)[C@](O)(Cn1cncn1)c1ccc(F)cc1F :: 30%

Fill in the blank: the reported Protection of Cc1nc(-c2ccc(Br)cc2)sc1C(=O)N[C@H](C)[C@](O)(Cn1cncn1)c1ccc(F)cc1F is ____. 100%

Param item: C[C@@H](NC(=O)c1scc(S(=O)(=O)c2ccc(Cl)cc2)c1N)[C@](O)(Cn1cncn1)c1ccc(F)cc1F 20%

Param item: CS(=O)(=O)O.Cc1nc(-c2ccc(C#N)cc2)sc1C(=O)N[C@H](C)[C@](O)(Cn1cncn1)c1ccc(F)cc1F 100%

Param item: C[C@@H](NC(=O)c1cnc(-c2ccc(Cl)cc2)s1)[C@](O)(Cn1cncn1)c1ccc(F)cc1F 100%
